- System: AT11-L2 (DNA, G4) TGGTGGTGGTTGTTGTTGGTGGTGGTGGT
- protocol_text: CD melting
- assay_context: K+ 100 mM; 10 mM lithium cacodylate pH 7.2; 10 µM DNA; 2.0 eq. ligand (20 µM)
quantity: ΔTm (°C)

| chemical_smiles | quantity | reading |
| --- | --- | --- |
| C[n+]1cc(NC(=O)c2cccc(C(=O)Nc3cc4ccccc4[n+](C)c3)n2)cc2ccccc21 | ΔTm | 6.5 |
| CN(C)c1ccc(Nc2c3ccc(NC(=O)CCN4CCCC4)cc3nc3cc(NC(=O)CCN4CCCC4)ccc23)cc1 | ΔTm | 22.5 |
| NCCOc1cc(C(=O)Nc2cc(OCCN)c3ccccc3n2)nc(C(=O)Nc2cc(OCCN)c3ccccc3n2)c1 | ΔTm | 1.8 |
| C[n+]1cc(NC(=O)c2ccc3ccc4ccc(C(=O)Nc5cc6ccccc6[n+](C)c5)nc4c3n2)cc2ccccc21 | ΔTm | 14.9 |

Data origin, for the record: paper PMC9609330
